Measured growth inhibition, listed per entry for reference.
# assay-summary: NCI Yeast Anticancer Drug Screen. Data for the mec2-1 strain (AID 157)
# study-conditions: S. cerevisiae mec2-1 strain, at 33.0 µM, active compounds read high
Compounds without any hit were thinned out: in the full panel of roughly 79,000, 15% have a hit.

>  <compound>
CC(C)NCCCNc1c2ccccc2nc2cccc([N+](=O)[O-])c12

>  <unit-name>
%

>  <growth inhibition>
98

$$$$
>  <compound>
CC1=NN(C(=O)c2ccccc2O)C(=O)/C1=C/c1ccco1

>  <unit-name>
%

>  <growth inhibition>
91

$$$$
>  <compound>
O=C1C2=C(c3ccccc31)C(c1ccccc1)N1C(=O)CSC1=N2 (stereo unspecified)

>  <unit-name>
%

>  <growth inhibition>
8

$$$$
>  <compound>
NC(CS)C(=O)NCCNc1ccc(NCCNC(=O)C(N)CS)c2c1C(=O)c1c(O)ccc(O)c1C2=O (stereo unspecified)

>  <unit-name>
%

>  <growth inhibition>
86

$$$$
>  <compound>
COc1cc([N+](=O)[O-])c2ncccc2c1Br

>  <unit-name>
%

>  <growth inhibition>
-1

$$$$
>  <compound>
O=S(=O)(NC1CCCC(c2ccccc2)C1)c1ccccc1 (stereo unspecified)

>  <unit-name>
%

>  <growth inhibition>
0

$$$$

###

# assay-summary: NCI Yeast Anticancer Drug Screen. Data for the mec2-1 strain (AID 157)
# study-conditions: S. cerevisiae mec2-1 strain, at 100.0 µM, active compounds read high
Compounds without any hit were thinned out: in the full panel of roughly 79,000, 15% have a hit.
Measured growth inhibition, listed per entry for reference.
readout: growth inhibition (%)

>  <compound>
C=CCNC1=C2C[C@@H](C)C[C@H](OC)[C@H](O)[C@@H](C)/C=C(\C)[C@H](OC(N)=O)[C@@H](OC)/C=C\C=C(/C)C(=O)NC(=CC1=O)C2=O

>  <unit-name>
%

>  <recorded-value>
95

$$$$
>  <compound>
O=C1c2ccccc2C(=O)c2sc(Nc3ccccc3Cl)nc21

>  <unit-name>
%

>  <recorded-value>
98

$$$$
>  <compound>
CC1=NN(C(=O)c2ccccc2O)C(=O)/C1=C/c1ccco1

>  <unit-name>
%

>  <recorded-value>
96

$$$$
>  <compound>
O=C(/N=N/C(=O)Oc1ccccc1)Oc1ccccc1

>  <unit-name>
%

>  <recorded-value>
-16

$$$$
>  <compound>
O=C1C=C(Br)C(=O)c2ccccc21

>  <unit-name>
%

>  <recorded-value>
99

$$$$
>  <compound>
Cc1cccc(C)c1NC(=O)CCC(=O)C(C)C(=O)c1ccc(O)cc1 (stereo unspecified)

>  <unit-name>
%

>  <recorded-value>
-5

$$$$
>  <compound>
Nc1cc2ccccc2cc1N

>  <unit-name>
%

>  <recorded-value>
-15

$$$$
>  <compound>
Cc1c(C(=O)/C=C/c2ccccc2[N+](=O)[O-])[n+](=O)c2ccccc2n1[O-]

>  <unit-name>
%

>  <recorded-value>
89

$$$$
>  <compound>
COC(=O)/C(C#N)=C\NC(=S)C(N)=S

>  <unit-name>
%

>  <recorded-value>
98

$$$$
>  <compound>
CNCC(C)CNC

>  <unit-name>
%

>  <recorded-value>
-26

$$$$
>  <compound>
CC1(C)CC(=O)C(/C=N/c2nc(-c3ccc(Br)cc3)cs2)=C(O)C1

>  <unit-name>
%

>  <recorded-value>
98

$$$$

###

# assay-summary: NCI Yeast Anticancer Drug Screen. Data for the rad18 strain (AID 177)
# study-conditions: S. cerevisiae rad18 mutant growth inhibition; at 1.2 µM
# Experimental: Growth inhibition of yeast strains with defined genetic alterations is measured as a screen for potential anti-cancer activity. Selected strains with alterations in DNA damage repair or cell cycle control were exposed to compounds and growth inhibition was measured relative to vehicle treated controls. The strain used in this assay is rad18
This is part of a sample that, as a whole, favours compounds with a hit. Of some 79,000 tested, about 15% had one in any assay. Active and inactive are the calls of the source. Cut-off read from the data, not from the text of the source: active = growth inhibition above about 70%; inactive = the rest.
Classes used: T (active), F (inactive)

>  <compound>
COc1cc(OC)c(CSCC(NC(=O)OCC2c3ccccc3-c3ccccc32)C(=O)O)c(OC)c1 (stereo unspecified)

>  <discrete-label>
F

$$$$
>  <compound>
c1ccc([P+](CCN2Cc3ccccc3C2)(c2ccccc2)c2ccccc2)cc1

>  <discrete-label>
F

$$$$
>  <compound>
Nc1ccc(N=Nc2ccc(-c3ccc(O)cc3)cc2)c2ccc(S(=O)(=O)O)cc12

>  <discrete-label>
F

$$$$
>  <compound>
O=C1c2ccccc2N2OC3(N4CCCC4)CCCCC3C12c1ccccc1 (stereo unspecified)

>  <discrete-label>
F

$$$$
>  <compound>
CCCCS(=O)(=O)Nc1ccc(Nc2c3ccccc3nc3ccccc23)c(OC)c1

>  <discrete-label>
F

$$$$
>  <compound>
CCCCCCCN(CCCCCCC)CC(=O)c1ccc2cc(Cl)c3ccccc3c2c1

>  <discrete-label>
F

$$$$
>  <compound>
O=C(O)c1c2ccc(Cl)cc2nc2[nH]c(=O)[nH]c(=O)c12

>  <discrete-label>
F

$$$$
>  <compound>
Nc1cc2c(cc1N)-c1ccccc1C2=O

>  <discrete-label>
F

$$$$
>  <compound>
O=C1c2ccccc2C(=O)c2c(O)c(NCCNCCO)cc(O)c21

>  <discrete-label>
F

$$$$
>  <compound>
CNC(=O)OCc1c(COC(=O)NC)c(C)n(-c2ccc(Br)cc2)c1C

>  <discrete-label>
F

$$$$
>  <compound>
S=C(NCc1ccccn1)N/N=C/c1ccccn1

>  <discrete-label>
T

$$$$

###

# assay-summary: NCI Yeast Anticancer Drug Screen. Data for the rad50EPP+ strain (AID 151);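 further: 0% = growth of vehicle-treated control cultures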
# study-conditions: S. cerevisiae rad50 mutant strain, at 3.7 µM
Compounds without any hit were thinned out: in the full panel of roughly 79,000, 15% have a hit. Activity calls are given as the source filed them. Rule as the data show it: active = growth inhibition above about 70%; inactive = the rest. Residues, ends and D or L forms follow the SMILES beside them. *: point of attachment. Fmoc = O=C(OCC1c2ccccc2-c2ccccc21)*; Boc = CC(C)(C)OC(=O)*
Classes used: active, inactive

>  <molecule>
OC(c1ccccc1)(c1ccccc1)c1nccc2ccccc12

>  <discrete-label>
inactive

$$$$
>  <molecule>
Cc1c(C(=O)/C=C/c2ccccc2[N+](=O)[O-])[n+](=O)c2ccccc2n1[O-]

>  <discrete-label>
inactive

$$$$
>  <molecule>
O=c1cccccc1[O-].O=c1cccccc1[O-].O=c1cccccc1[O-].[Eu+3]

>  <discrete-label>
inactive

$$$$
>  <molecule>
C=COC(=O)N[C@H]1CCc2cc(OC)c(OC)c(OC)c2-c2ccc(SC)c(=O)cc21

>  <discrete-label>
inactive

$$$$
>  <molecule>
CCCCCCCCCCCCCCCCCCNc1nc(=O)n(C2CC(OP(=O)(O)OCC3OC(n4cc(F)c(=O)[nH]c4=O)CC3O)C(CO)O2)cc1F (centres undefined)

>  <discrete-label>
inactive

$$$$
>  <molecule>
Cc1ccnc2c(O)cccc12

>  <discrete-label>
active

$$$$
>  <molecule>
O=C(Cc1ccccc1)NN1C(=O)C(Cl)C1c1cc(Br)cc(Br)c1O (centres undefined)

>  <discrete-label>
inactive

$$$$
>  <molecule>
COc1cc2c(cc1O)[C@H](C)C(c1ccccc1OC)O2 (some centres undefined)

>  <discrete-label>
inactive

$$$$
>  <molecule>
OC(CC(O)(C(F)(F)F)C(F)(F)F)c1ccc(C(O)CC(O)(C(F)(F)F)C(F)(F)F)cc1 (centres undefined)

>  <discrete-label>
inactive

$$$$
>  <molecule>
O=S(=O)(c1cccc(C(F)(F)F)c1)N1c2ccccc2-n2cccc2C1c1cccnc1 (centres undefined)

>  <discrete-label>
inactive

$$$$
>  <molecule>
COc1ccc(C(=O)/C=C\c2ccc(Cl)c(Cl)c2)cc1

>  <discrete-label>
inactive

$$$$
>  <molecule>
CC(C)(C)OC(=O)NCCCCC(NC(=O)C(Cc1c[nH]c2ccccc12)NC(=O)OCC1c2ccccc2-c2ccccc21)C(=O)O (centres undefined) (Fmoc-Trp-Lys(Boc)-OH; configuration not given here)

>  <discrete-label>
inactive

$$$$
>  <molecule>
CN(C)CCNc1ccc2ncn3c4ccc(O)cc4c(=O)c1c23

>  <discrete-label>
inactive

$$$$
>  <molecule>
CC(C)N(CCCNc1c2ccccc2nc2cccc([N+](=O)[O-])c12)C(C)C

>  <discrete-label>
active

$$$$
>  <molecule>
Cc1ccc(NC(=O)CCC(=O)C(C)C(=O)c2ccccc2)c(C)c1 (centres undefined)

>  <discrete-label>
inactive

$$$$
>  <molecule>
CC1(C)C(O)OC(O)C1(C)C (centres undefined)

>  <discrete-label>
inactive

$$$$
>  <molecule>
Nc1ccc(N=Nc2ccc(-c3ccc(O)cc3)cc2)c2ccc(S(=O)(=O)O)cc12

>  <discrete-label>
inactive

$$$$
>  <molecule>
O=C(O)c1cc2c(cc1S(=O)(=O)O)C1C(C3C2C2(Cl)C(Cl)=C(Cl)C3(Cl)C2(Cl)Cl)C2(Cl)C(Cl)=C(Cl)C1(Cl)C2(Cl)Cl (centres undefined)

>  <discrete-label>
inactive

$$$$
>  <molecule>
CCOC(=O)C(Cc1c2ccccc2cc2ccccc12)(NC(C)=O)C(=O)OCC

>  <discrete-label>
inactive

$$$$
